# target-entity: catalytic domain of the recombinant TACE protein (Homo sapiens)
# Construct: The catalytic domain of the recombinant TACE protein was expressed and purified; made in house
# protocol-summary: TACE FRET assay using TACE cat
# Assay type: biochemical
# applied-conditions: read-out: TACE Inhibition (%)
Below, each of the compounds is paired with its reported inhibition at 1 µM value.
Enter your answer as a number in %; do not include the unit.

// solved cases for inhibition at 1 µM follow
{"columns": ["line-notation", "value-unit", "inhibition at 1 µM"],
 "data": [
  ["CC#CCOc1ccc(S(=O)(=O)N[C@@H](Cc2cn(Cc3ccc(F)cc3)c3ccc(C#N)cc23)C(=O)O)cc1", "%", 29.6],
  ["CC#CCOc1ccc(S(=O)(=O)N[C@@H](Cc2c(C)n(CC(C)C)c3ccc(OC)cc23)C(=O)O)cc1", "%", 66.6],
  ["CC#CCOc1ccc(S(=O)(=O)N[C@@H](Cc2c(C)n(Cc3ccc(C(F)(F)F)cc3)c3ccc(OC)cc23)C(=O)O)cc1", "%", 78.3]
]}

Now examine the next entry.
For the compound `CC#CCOc1ccc(S(=O)(=O)N[C@@H](Cc2c(C)n(Cc3ccccc3OC)c3ccc(OC)cc23)C(=O)O)cc1` , what inhibition at 1 µM is on record? 75.6

---

Below, each of the compounds is paired with its reported inhibition at 1 µM value.
# target-entity: catalytic domain of the recombinant TACE protein (Homo sapiens, UniProt P78536)
# Construct: The catalytic domain of the recombinant TACE protein was expressed and purified; made in house
# Sequence (P78536 223-474 limits assumed): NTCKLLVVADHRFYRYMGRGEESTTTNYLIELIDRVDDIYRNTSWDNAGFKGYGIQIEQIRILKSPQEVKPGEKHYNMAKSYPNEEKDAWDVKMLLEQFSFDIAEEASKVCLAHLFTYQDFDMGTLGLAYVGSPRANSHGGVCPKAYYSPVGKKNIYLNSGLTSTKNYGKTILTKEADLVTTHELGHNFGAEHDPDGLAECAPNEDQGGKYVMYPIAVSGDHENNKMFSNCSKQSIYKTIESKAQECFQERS
# protocol-summary: TACE FRET assay using TACE cat
# Type: biochemical
# applied-conditions: read-out: TACE Inhibition (%)
# Method: TACE FRET Assay Using TACE Cat “K” is the IC50. Generally, “n” and “B” are floated, noting that n (Hill slope) should be close to 1 and B (background offset) to 0. Pro-TNF-α substrate peptide Abz-[…]-Dpa (AnaSpec, San Jose, Calif., WARC-1) was prepared as a 2 mM stock solution in the TACE assay buffer (50 mM Tris-HCl, pH 7.4, 25 mM NaCl, 4% Glycerol, 0.005% Brij 35). […] The initial rate (slope) of the reaction was determined using a fluorescence plate reader (Molecular Devices, Spectra Max Gemini XS).
Enter your answer as a number in %; do not include the unit.

{"columns": ["line-notation", "recorded-endpoint", "result-number"],
 "data": [
  ["CC#CCOc1ccc(S(=O)(=O)N[C@@H](Cc2c(C)n(Cc3ccccc3C)c3ccccc23)C(=O)O)cc1", "inhibition at 1 µM", 49.5],
  ["CC#CCOc1ccc(S(=O)(=O)N[C@@H](Cc2cn(Cc3ccc(OC(F)(F)F)cc3)c3ccc(Cl)cc23)C(=O)O)cc1", "inhibition at 1 µM", 7.39],
  ["CC#CCOc1ccc(S(=O)(=O)N[C@@H](Cc2c(C)n(Cc3ccc(OC)cc3)c3ccc(OC)cc23)C(=O)O)cc1", "inhibition at 1 µM", 77.5]
]}

Now examine the next entry.
For the compound `CC#CCOc1ccc(S(=O)(=O)N[C@@H](Cc2c(C)n(Cc3ccc(C(F)(F)F)cc3)c3ccc(Cl)cc23)C(=O)O)cc1` , what inhibition at 1 µM is on record? 53.8

---

# target-entity: recombinant human catalytic domain of MMP-14 (Homo sapiens, UniProt P50281)
# Construct: 177 amino acids corresponding to Tyr89-Gly265 of mature human enzyme; 20 kDa
# protocol-summary: biochemical
Below, each of the compounds is paired with its reported IC50 value.
Enter your answer as a number in µM; do not include the unit.

// solved cases for IC50 follow
{"columns": ["compound", "IC50, µM"],
 "data": [
  ["CC#CCOc1ccc(S(=O)(=O)N[C@H](Cc2cn(Cc3ccc(OC)cc3)c3ccccc23)C(=O)O)cc1 [Example 35]", 13],
  ["CC#CCOc1ccc(S(=O)(=O)N[C@@H](Cc2c[nH]c3ccc(OC)cc23)C(=O)O)cc1 [Example 221]", 20.7],
  ["CC#CCOc1ccc(S(=O)(=O)N[C@@H](Cc2c[nH]c3ccc(C)cc23)C(=O)O)cc1 [Example 218]", 6.82],
  ["CC#CCOc1ccc(S(=O)(=O)NC(Cc2cn(Cc3ccc(OC)cc3)c3ccc(C)cc23)C(=O)O)cc1 (stereo not drawn) [Example 47]", 11.6],
  ["CC#CCOc1ccc(S(=O)(=O)N[C@@H](Cc2c[nH]c3ccc(OCc4ccccc4)cc23)C(=O)O)cc1 [Example 224]", 19.7]
]}

Now examine the next entry.
For the compound CC#CCOc1ccc(S(=O)(=O)NC(Cc2c[nH]c3ccc(OC)cc23)C(=O)O)cc1 (racemic) [Example 4] , what IC50 is on record? 22.7
